- Test system: CP265
- ASSAY_PROTOCOL: qHTS profiling for inhibitors of Plasmodium falciparum proliferation (AID 504749); note: nearly all actives have a fitted effect of over 60% in size
- EXPERIMENTAL_SETUP: P. falciparum in erythrocytes, SYBR Green DNA, 72 h; series mostly up to 28.7 µM
Inconclusive results are not listed. Active and inactive are the calls of the source. Calls come from the whole dose curve; as a rule, active = well fitted inhibition curve with a large enough effect; inconclusive = small, poorly fitted or top-dose-only effect; inactive = flat fitted curve, though single readings scatter.
Tick one outcome: TRUE = active, FALSE = inactive

Solved cases (5 shown):
MOLECULE	ASSIGNED_LABEL
CCCCCCC(O)C/C=C/CCCCCCCC(=O)O (centres undefined)	FALSE
CO[C@H]1C[C@@H]2CC[C@@H](C)[C@@](O)(O2)C(=O)C(=O)N2CCCC[C@H]2C(=O)O[C@H]([C@H](C)C[C@@H]2CC[C@@H](OCCO)[C@H](OC)C2)CC(=O)[C@H](C)/C=C(\C)[C@@H](O)[C@@H](OC)C(=O)[C@H](C)C[C@H](C)/C=C/C=C/C=C/1C	TRUE
O=C1C(=O)c2ncccc2-c2cccnc21	TRUE
CCC(=O)NCCC1CCc2ccc3c(c21)CCO3 (centres undefined)	FALSE
CCCCC(=O)O[C@]1(C(=O)CO)[C@H](C)C[C@H]2[C@@H]3CCC4=CC(=O)C=C[C@]4(C)[C@@]3(F)[C@@H](O)C[C@@]21C	FALSE

Next item in the queue.
Q: Assay result, entry CCOc1ccc(N=Nc2ccc(N)cc2N)cc1 — outcome?
A: FALSE
